// S/N at plasma conc. 0.800 ng/mL lookup, one value per entry
Biological target: T1, exemplary TAT frataxin fusion molecule (HIV-1, UniProt Q16595 1-210)
T1 construct: in the bridging assays biotinylated and sulfotagged forms were used; also called TAT-FXN fusion molecule; TAT FXN fusion molecule
T1 sequence: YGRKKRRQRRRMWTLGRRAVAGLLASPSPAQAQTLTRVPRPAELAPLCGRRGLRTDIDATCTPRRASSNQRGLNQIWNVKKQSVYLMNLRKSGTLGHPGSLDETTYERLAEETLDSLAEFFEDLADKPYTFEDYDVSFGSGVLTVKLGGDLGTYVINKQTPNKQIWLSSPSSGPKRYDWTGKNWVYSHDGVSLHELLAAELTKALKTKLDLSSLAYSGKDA
Experiment: PK sandwich ELISA in human plasma, antibody as capture, HRP anti-frataxin mAb detection
Lab note: jot down the number only; don't add units.

Below, each entry is followed by its recorded S/N at plasma conc. 0.800 ng/mL result.
binder	S/N at plasma conc. 0.800 ng/mL
antibody 12-3 (antibody, V domains shown, Rabbit monoclonal) VH: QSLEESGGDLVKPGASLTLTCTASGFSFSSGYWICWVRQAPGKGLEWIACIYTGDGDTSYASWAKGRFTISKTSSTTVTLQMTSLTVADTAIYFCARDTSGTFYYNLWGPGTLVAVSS VL: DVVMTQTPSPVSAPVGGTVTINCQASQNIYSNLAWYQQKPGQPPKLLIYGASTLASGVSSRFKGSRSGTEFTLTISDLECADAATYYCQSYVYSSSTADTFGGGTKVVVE	2.1
antibody 10-9 (antibody, V domains shown, Rabbit monoclonal) VH: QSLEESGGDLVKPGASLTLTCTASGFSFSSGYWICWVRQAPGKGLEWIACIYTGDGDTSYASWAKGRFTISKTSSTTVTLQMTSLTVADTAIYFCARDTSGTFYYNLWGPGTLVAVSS VL: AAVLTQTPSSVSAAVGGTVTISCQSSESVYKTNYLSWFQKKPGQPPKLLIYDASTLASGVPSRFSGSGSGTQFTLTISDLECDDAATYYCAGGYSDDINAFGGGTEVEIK	2.1
antibody 12-1 (antibody, V domains shown, Rabbit monoclonal) VH: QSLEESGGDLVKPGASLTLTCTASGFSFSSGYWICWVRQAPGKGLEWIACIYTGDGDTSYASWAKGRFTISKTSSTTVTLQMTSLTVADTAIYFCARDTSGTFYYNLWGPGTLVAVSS VL: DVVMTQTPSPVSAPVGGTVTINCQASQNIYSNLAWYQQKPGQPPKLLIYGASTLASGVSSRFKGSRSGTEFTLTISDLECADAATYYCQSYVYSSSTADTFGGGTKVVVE	1.9
antibody 10-12 (antibody, V domains shown, Rabbit monoclonal) VH: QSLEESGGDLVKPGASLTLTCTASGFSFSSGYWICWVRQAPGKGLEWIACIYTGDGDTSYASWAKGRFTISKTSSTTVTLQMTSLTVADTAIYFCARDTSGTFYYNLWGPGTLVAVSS VL: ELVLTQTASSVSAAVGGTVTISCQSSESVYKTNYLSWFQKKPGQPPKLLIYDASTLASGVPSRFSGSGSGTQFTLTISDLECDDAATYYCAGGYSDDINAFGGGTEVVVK	2

Kindly note the recorded S/N at plasma conc. 0.800 ng/mL for antibody 12-8 (antibody, V domains shown, Rabbit monoclonal) VH: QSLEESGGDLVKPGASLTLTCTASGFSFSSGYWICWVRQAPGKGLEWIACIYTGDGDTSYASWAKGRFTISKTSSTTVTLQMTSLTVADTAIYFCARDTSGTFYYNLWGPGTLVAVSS VL: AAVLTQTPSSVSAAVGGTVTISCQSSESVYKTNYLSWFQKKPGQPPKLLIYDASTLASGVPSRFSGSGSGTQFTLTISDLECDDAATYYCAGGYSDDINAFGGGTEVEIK , which is 1.9
